- experiment summary: chemical genetic growth profiling, strain panel (AID 1159580);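 note: tested at 20 µM; growth read once vehicle control cultures reached saturation at 30 °C; 1 = growth at the plate median or of vehicle wells; lower values mean less growth of the strain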
- assay context: S. cerevisiae deletion strains, growth OD, locus YLR262C, strain YPT6, stronger effect = lower value
In all, about 5,500 compounds went through this assay and about 2,000 (36%) were called active. About 18% were inconclusive and are not listed. Some of the results follow.
Reported normalized growth values for a set of molecules

Record excerpt, results attached:
• COc1ccc(OC)c(C(O)CNC(=O)CN)c1 (configuration not stated) = 0.956 (inactive)
• COc1c(Br)cc([N+](=O)[O-])c(OC)c1C(N)=O = 1.01 (inactive)
• C[C@@H]1CC(Cl)CC[C@H]1C(=O)OC(C)(C)C (some centres not stated) = 0.957 (inactive)
• Cc1ccc(-c2csc(CC#N)n2)cc1C = 0.78 (active)
• COc1ccc(/C=C2\CC/C(=C\c3ccc(OC)c(OC)c3)C2=O)cc1OC = 0.964 (inactive)

Task: Hello, please tell me recorded normalized growth for this one: O=C(NNC(=S)Nc1cccc(Cl)c1)C1CC1
Output: 0.949 (inactive)

Task: Quick one: give measured normalized growth for COc1ccc(-n2c(=S)[nH]c(=O)c3cccnc32)cc1
Output: 0.988 (inactive)
